# MEASURED_TARGET: Calcium/calmodulin-dependent protein kinase kinase 2 (Homo sapiens, UniProt Q96RR4); also: in the data inactive means no Kd found up to 30 µM
# Sequence (Q96RR4 whole entry): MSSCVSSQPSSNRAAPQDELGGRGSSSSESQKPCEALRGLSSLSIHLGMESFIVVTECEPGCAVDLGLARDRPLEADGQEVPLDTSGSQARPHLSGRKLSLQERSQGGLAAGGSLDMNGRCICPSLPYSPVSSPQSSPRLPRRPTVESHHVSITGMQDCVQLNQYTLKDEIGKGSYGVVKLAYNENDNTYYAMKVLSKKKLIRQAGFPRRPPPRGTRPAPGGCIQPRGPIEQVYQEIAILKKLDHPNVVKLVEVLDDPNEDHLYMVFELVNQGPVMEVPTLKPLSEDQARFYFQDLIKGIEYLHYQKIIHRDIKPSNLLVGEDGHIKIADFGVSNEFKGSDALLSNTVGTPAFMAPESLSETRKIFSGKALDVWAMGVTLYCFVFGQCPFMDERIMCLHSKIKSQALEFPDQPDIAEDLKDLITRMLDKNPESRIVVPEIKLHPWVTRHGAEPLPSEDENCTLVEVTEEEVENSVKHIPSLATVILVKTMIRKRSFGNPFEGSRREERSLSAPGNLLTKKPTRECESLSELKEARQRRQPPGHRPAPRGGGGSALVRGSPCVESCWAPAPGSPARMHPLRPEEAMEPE
Activity calls are given as the source filed them.
Pick one and only one: Y (active), N (inactive)

# example entries with known answers
[[record]]
molecule = "Cc1cc(-c2cc(OC(=O)c3ccccc3)ccc2Cl)cc2nnc(Nc3ccc(OCCN4CCCC4)cc3)nc12"
cat = "N"

[[record]]
molecule = "CNC(=O)c1ccc(Nc2ncc(C(F)(F)F)c(NCc3nccnc3N(C)S(C)(=O)=O)n2)cc1"
cat = "N"

[[record]]
molecule = "O[C@H]1CC[C@H](Nc2ncc3nc(Nc4c(F)cc(F)cc4F)n([C@H]4CCOC4)c3n2)CC1"
cat = "N"

[[record]]
molecule = "CNC(=O)c1cccc(-c2ccc3c(N4CCOC[C@@H]4C)nc(N4CCOC[C@@H]4C)nc3n2)c1"
cat = "N"

[[record]]
molecule = "CC(C)CC(=O)Nc1[nH]nc2c1CN(C(=O)C1CCN(C)CC1)C2(C)C"
cat = "N"

[[record]]
molecule = "CCOc1ccn(-c2ccc(F)cc2)c(=O)c1C(=O)Nc1ccc(Oc2ccnc(N)c2Cl)c(F)c1"
cat = "N"


Outcome logged for Cn1c(=O)c(F)c(Nc2ccc(I)cc2F)c2c(=O)n(C[C@@H](O)CO)cnc21 in this assay:
N

GET /call?item= COc1ccc(-c2ccc3ncc4c(c3c2)n(-c2ccc(N3CCNCC3)c(C(F)(F)F)c2)c(=O)n4C)cn1 [BGT-226 FREE BASE] returns the recorded outcome of this test.
N

For this molecule, state the assay outcome: Cc1cc(Nc2nc(N[C@@H](C)c3ncc(F)cn3)ncc2Cl)n[nH]1
N

Hey, what did the test say about Cn1cc(-c2[nH]c3cc(NC(=O)[C@H](N)C4CCCCC4)cc4c3c2C=NNC4=O)cn1 ?
N

Please let me know the test result on file for C=CC(=O)Nc1cc(Nc2nccc(-c3cn(C)c4ccccc34)n2)c(OC)cc1N(C)CCN(C)C .
N

Write down the call the test reported for this molecule. Item: O=S(=O)(c1cccc2c(O)nccc12)N1CCCNCC1 [HYDROXYFASUDIL]
N
